target: Human immunodeficiency virus type 1 protease (Human immunodeficiency virus 1, UniProt Q72874)
Ki values by entry
Just the number please, in nM, no unit attached.

// solved cases for Ki follow
COc1cccc(N2C(=O)N(Cc3cccc(C(=O)Nc4cnccn4)c3)[C@H](Cc3ccccc3)[C@H](O)[C@@H](O)[C@H]2Cc2ccccc2)c1: 0.038
Cc1ccc(NC(=O)c2cccc(CN3C(=O)N(c4cccc(N)c4)[C@H](Cc4ccccc4)[C@H](O)[C@@H](O)[C@H]3Cc3ccccc3)c2)nc1: 0.075

Attention now shifts to the item below.
Problem: // returns reported Ki for input COc1cccc(N2C(=O)N(Cc3cccc(C(=O)Nc4cccc(C)n4)c3)[C@H](Cc3ccccc3)[C@H](O)[C@@H](O)[C@H]2Cc2ccccc2)c1
Solution: 0.053
